Data origin, for the record: patent US11266640B2

Target: hIDO1 (Homo sapiens)
Construct: expressed in transfected cells; host or cells: HEK293T (293T) cells, transient transfection with Fugene 6
Experiment: IDO inhibition activity based on HEK293T cells transfected with hIDO1 plasmid
Assay type: cell-based
Conditions: HEK293T cells transfected with hIDO1, 16 hours incubation, OD 480 nm; read-out: IDO inhibitory activity of HEK293T cells (IC50)
Recorded IC50 values for a group of molecules are listed next.

Example molecules with recorded IC50:
>>> df
                                   molecule             tested_on  outcome_measure       result
0  CC(C)(C(=O)Nc1ccc(Cl)cn1)[C@H]1C[C@H]2C[C@@H](c3ccnc4ccc(F)cc34)C[C@H]2C1  hIDO1 (Homo sapiens)             IC50      ≤ 10 nM
1  C[C@@H](C(=O)Nc1ccc(Cl)cc1)[C@H]1C[C@H]2C[C@@H](c3ccnc4ccc(F)cc34)C[C@H]2C1 (single isomer, unassigned)  hIDO1 (Homo sapiens)             IC50      ≤ 10 nM
2  O=C(C[C@@H]1C[C@@H]2C[C@@H](c3ccnc4ccc(F)cc34)C(O)[C@@H]2C1)Nc1ccc(Cl)cc1 (stereo partly shown)  hIDO1 (Homo sapiens)             IC50  10 to 50 nM
3  CC(C)(C(=O)Nc1ccc(Cl)nc1)[C@H]1C[C@H]2C[C@@H](c3ccnc4ccc(F)cc34)C[C@H]2C1  hIDO1 (Homo sapiens)             IC50      ≤ 10 nM
4  O=C(CC1=C[C@H]2C[C@@H](c3ccnc4ccc(F)cc34)C[C@H]2C1)Nc1ccc(Cl)cc1 (racemic)  hIDO1 (Homo sapiens)             IC50  10 to 50 nM
5  CC(C(=O)Nc1cccc(Cl)c1)[C@H]1C[C@H]2C[C@@H](c3ccnc4ccc(F)cc34)C[C@H]2C1 (stereo partly shown)  hIDO1 (Homo sapiens)             IC50  10 to 50 nM
6  O=C(C[C@H]1C[C@@H]2C[C@H](c3ccnc4ccc(F)cc34)C[C@@H]2C1)Nc1ccc(Cl)cc1  hIDO1 (Homo sapiens)             IC50      ≤ 10 nM
7  O=C(C[C@@H]1C[C@@H]2C[C@H](c3ccnc4ccc(F)cc34)C[C@@H]2C1)Nc1ccc(Cl)cc1  hIDO1 (Homo sapiens)             IC50  10 to 50 nM
8  CC(C(=O)Nc1ccc(C#CC2CC2)cn1)[C@H]1C[C@H]2CC(c3ccnc4ccc(F)cc34)C[C@H]2C1 (stereo partly shown)  hIDO1 (Homo sapiens)             IC50  10 to 50 nM
9  CC(C(=O)Nc1ccc(C#N)nc1)[C@H]1C[C@H]2C[C@@H](c3ccnc4ccc(F)cc34)C[C@H]2C1 (stereo partly shown)  hIDO1 (Homo sapiens)             IC50      ≤ 10 nM

Task: Indicate the recorded IC50 value for this molecule: CC(C(=O)Nc1ccc(Cl)cc1)[C@@H]1C[C@@H]2CN(c3ccnc4ccc(F)cc34)C[C@@H]2C1 (stereo partly shown)
Result: > 100 nM

Task: Give the reported value of IC50 for this record: CC#Cc1ccc(NC(=O)C(C)(C)[C@H]2C[C@H]3C[C@@H](c4ccnc5ccc(F)cc45)C[C@H]3C2)nc1
Result: ≤ 10 nM

Task: Specify reported IC50 for the molecule shown: CC(C(=O)Nc1ccc(Cl)cc1)C1=C[C@H]2C[C@@H](c3ccnc4ccc(F)cc34)C[C@H]2C1 (stereo partly shown)
Result: ≤ 10 nM

* * *

Molecular target: IDO (Homo sapiens)
Construct: endogenous in cells
Assay: Hela cell-based IDO inhibitory activity test (IFNγ added)
Details: Hela cells with IFNγ, 48 hours incubation, OD 480 nm
Protocol: 2. Hela Cell-Based IDO Inhibitory Activity Test Method The first step: cell plating. Prepare complete medium and mix well. Cell lines that are in good growth state are selected. […] Take 70 μL of the supernatant and transfer to a 3635 UV plate, add 70 μL of the reaction solution, and shake for 2 minutes to make the reaction uniform. […] The 96-well plate was allowed to stand at room temperature for 10 minutes to stabilize the luminescence signal. […]
pIC50: −log10 of the molar value.
outcome-measure: pIC50

A selection of reference data follows.
>>> print(df.to_string())
                                   molecule  result
0  CC(C(=O)Nc1ccc(Cl)cc1)[C@H]1C[C@H]2C[C@@H](c3ccnc4ccc(F)cc34)C[C@H]2C1 (mixture of isomers)  ≥ 8.30
1  CC(C(=O)Nc1cnc(N)nc1)[C@H]1C[C@H]2C[C@@H](c3ccnc4ccc(F)cc34)C[C@H]2C1 (stereo partly drawn)  < 7.00
2  CC(C(=O)Nc1ccc(C(F)(F)F)nc1)[C@H]1C[C@H]2C[C@@H](c3ccnc4ccc(F)cc34)C[C@H]2C1 (stereo partly drawn)  ≥ 8.30
3  C[C@H](C(=O)Nc1ccc(Cl)cc1)[C@H]1C[C@H]2C[C@@H](c3ccnc4ccc(F)cc34)C[C@H]2C1 (single isomer, unassigned)  ≥ 8.30
4  Cn1nc(C2=C[C@@H]3C[C@H](CC(=O)Nc4ccc(Cl)cc4)C[C@@H]3C2)c2ccccc21  < 7.00

Could you now look at the following molecule, please?
Task: Provide measured pIC50 value, entry: O=C(C[C@@H]1C[C@@H]2C[C@@]3(c4ccnc5ccc(F)cc45)O[C@H]3[C@@H]2C1)Nc1ccc(Cl)cc1
Result: 7.60 to 8.30

* * *

Biological target: IDO (Homo sapiens)
Construct: endogenous in cells
Test: Hela cell-based IDO inhibitory activity test (IFNγ added)
Details: Hela cells with IFNγ, 48 hours incubation, OD 480 nm
# IC50 per entry

Guide cases for IC50, answers given:
                                   compound  outcome_measure      result
0  CC(C(=O)Nc1ccc(C(F)(F)F)cn1)[C@H]1C[C@H]2C[C@@H](c3ccnc4ccc(F)cc34)C[C@H]2C1 (stereo partly drawn) [Compound 81]             IC50  5 to 25 nM
1  CC(C(=O)Nc1ccc(Cl)cc1)[C@@H]1C[C@@H]2CN(c3ccnc4ccc(F)cc34)C[C@@H]2C1 (stereo partly drawn) [Compound 9]             IC50    > 100 nM
2  O=C(C[C@H]1C[C@H]2CC(c3ccnc4ccc(F)cc34)C[C@H]2C1)Nc1ccc2c(c1)OC(F)(F)O2 (stereo partly drawn) [Compound 16]             IC50    > 100 nM
3  CC(C(=O)Nc1ccc(Cl)cc1)N1C[C@H]2C[C@@H](c3ccnc4ccc(F)cc34)C[C@H]2C1 (stereo partly drawn) [Compound 44]             IC50      ≤ 5 nM
4  O=C(C[C@@H]1C[C@@H]2CC(c3ccncc3F)=C[C@@H]2C1)Nc1ccc(Cl)cc1 [Compound 53]             IC50    > 100 nM

Task: Supply IC50 value. Item: O=C(C[C@@H]1C[C@@H]2C[C@H](c3ccnc4ccc(F)cc34)C[C@@H]2C1)Nc1ccc(Cl)cc1 [Compound 2]
Result: 5 to 25 nM

Task: Provide measured IC50 value, entry: N#Cc1ccc(NC(=O)C[C@@H]2C[C@@H]3CC(c4ccnc5ccc(F)cc45)=C[C@@H]3C2)cn1 (relative stereo) [Compound 101]
Result: 5 to 25 nM

* * *

IC50 overview
Biological target: hIDO1 (Homo sapiens, UniProt P14902)
Sequence (P14902 whole entry): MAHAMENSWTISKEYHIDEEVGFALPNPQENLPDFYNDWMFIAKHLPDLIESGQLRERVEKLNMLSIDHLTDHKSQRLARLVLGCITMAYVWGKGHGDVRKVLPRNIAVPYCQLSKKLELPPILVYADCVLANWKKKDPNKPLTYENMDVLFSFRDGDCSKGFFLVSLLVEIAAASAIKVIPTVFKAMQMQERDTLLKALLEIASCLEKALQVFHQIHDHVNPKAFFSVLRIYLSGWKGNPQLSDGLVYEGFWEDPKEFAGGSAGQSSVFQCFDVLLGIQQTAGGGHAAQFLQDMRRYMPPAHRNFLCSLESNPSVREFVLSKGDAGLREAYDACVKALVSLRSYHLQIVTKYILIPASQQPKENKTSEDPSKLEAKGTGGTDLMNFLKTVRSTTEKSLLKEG
Assay: IDO inhibition activity based on HEK293T cells transfected with hIDO1 plasmid
Settings: HEK293T cells transfected with hIDO1, 16 hours incubation, OD 480 nm; read-out: IDO inhibitory activity of HEK293T cells (IC50)

Examples with answers:
                                   compound  outcome_measure       result
0  CC(C(=O)Nc1ccc(Cl)cc1)[C@@H]1C[C@]2(C)C[C@H](c3ccnc4ccc(F)cc34)C[C@]2(C)C1 (stereo partly shown)             IC50  10 to 50 nM
1  CC(C(=O)Nc1ccc(Cl)cn1)[C@H]1C[C@H]2CC(c3ccnc4ccc(F)cc34)C[C@H]2C1 (mixture of isomers)             IC50  10 to 50 nM
2  C#Cc1ccc(NC(=O)C(C)[C@H]2C[C@H]3C[C@@H](c4ccnc5ccc(F)cc45)C[C@H]3C2)cc1 (stereo partly shown)             IC50      ≤ 10 nM
3  C#Cc1ccc(NC(=O)C[C@@H]2C[C@@H]3C[C@H](c4ccnc5ccc(F)cc45)C[C@@H]3C2)nc1             IC50      ≤ 10 nM
4  C#Cc1ccc(NC(=O)C(C)[C@H]2C[C@H]3C[C@@H](c4ccnc5ccc(F)cc45)C[C@H]3C2)nc1 (stereo partly shown)             IC50  10 to 50 nM

Task: Kindly indicate its recorded IC50. Item: C#Cc1ccc(NC(=O)C2([C@H]3C[C@H]4C[C@@H](c5ccnc6ccc(F)cc56)C[C@H]4C3)CC2)nc1
Result: ≤ 10 nM

Task: Entry O=C(C[C@@H]1C[C@H]2CC(c3ccnc4ccc(F)cc34)C[C@H]2C1)Nc1ccc(Cl)nc1 (stereo partly shown) needs its IC50 filled in; supply it.
Result: 10 to 50 nM
